- target or test system: Pancreatic CCK receptor (Rattus norvegicus, UniProt P30551)
- Sequence (P30551 1-444): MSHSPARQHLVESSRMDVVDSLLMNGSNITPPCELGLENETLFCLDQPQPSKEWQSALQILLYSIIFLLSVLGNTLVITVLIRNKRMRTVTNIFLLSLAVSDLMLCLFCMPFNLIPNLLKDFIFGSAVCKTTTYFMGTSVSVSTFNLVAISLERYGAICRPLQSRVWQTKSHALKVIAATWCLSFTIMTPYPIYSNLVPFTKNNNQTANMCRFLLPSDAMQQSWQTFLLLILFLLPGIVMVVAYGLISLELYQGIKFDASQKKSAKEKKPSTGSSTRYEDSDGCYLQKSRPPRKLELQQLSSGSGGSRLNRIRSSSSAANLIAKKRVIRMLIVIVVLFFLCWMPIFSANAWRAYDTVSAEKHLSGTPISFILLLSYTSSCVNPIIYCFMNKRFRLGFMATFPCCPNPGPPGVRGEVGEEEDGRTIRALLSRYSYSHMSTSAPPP
pIC50: −log10 of the molar value.
Listed here: items and their measured pIC50.

CC1=C\C=C\[C@@H](O)Cc2nc(co2)C(=O)N2CCC=C2C(=O)O[C@H](C(C)C)[C@H](C)/C=C/C(=O)NC\C=C\1 < 5.00

Turning to the following compound.
In plain terms, CC1=C\[C@@H](O)CC(=O)Cc2nc(co2)C(=O)N2CCC=C2C(=O)O[C@H](C(C)C)[C@H](C)/C=C/C(=O)NC\C=C\1 has a documented pIC50 of < 4.00
